# credit: patent US8916681B2

- targetOrTestSystem: GPR54 (Homo sapiens, UniProt Q969F8)
- Sequence (Q969F8 whole entry): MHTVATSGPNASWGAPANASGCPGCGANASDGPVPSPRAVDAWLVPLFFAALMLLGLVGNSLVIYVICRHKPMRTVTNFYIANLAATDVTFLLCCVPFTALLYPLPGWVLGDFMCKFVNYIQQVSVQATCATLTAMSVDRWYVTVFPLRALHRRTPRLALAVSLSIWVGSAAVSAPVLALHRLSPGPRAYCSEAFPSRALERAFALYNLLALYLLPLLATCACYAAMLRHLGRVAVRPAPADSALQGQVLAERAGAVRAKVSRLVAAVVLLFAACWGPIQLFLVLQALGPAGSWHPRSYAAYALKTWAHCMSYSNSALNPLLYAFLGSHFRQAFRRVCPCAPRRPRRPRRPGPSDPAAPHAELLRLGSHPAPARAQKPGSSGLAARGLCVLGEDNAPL
- assayOverview: Inositol phosphate (IP) stimulation assay in CHO/gpr-54 cells
- Type: cell-based
- Design: G. Vassart, Univ; Brussels
- experimentalConditions: CHO cells stably-expressing human gpr-54
Non-standard residues stand in square brackets, D forms with d. Residues, ends and D or L forms follow the SMILES beside them.
readoutType: stimulation of IP by the peptide alone

CC(=O)N[C@@H](Cc1ccc(O)cc1)C(=O)N[C@H](C)C(=O)N[C@@H](Cc1c[nH]c2ccccc12)C(=O)N[C@@H](CC(N)=O)C(=O)NCC(=O)N[C@@H](Cc1ccccc1)C(=O)NCC(=O)N[C@H](Cc1c[nH]c2ccccc12)C(=O)N[C@@H](CCCNC(=N)N)C(=O)N[C@@H](Cc1ccccc1)C(N)=O [Peptide 236] (Ac-Y[dA]WNGFG[dW]RF-NH2) | little or no stimulation
CC(=O)N[C@H](Cc1ccc(O)cc1)C(=O)N[C@@H](CC(N)=O)C(=O)N[C@@H](Cc1c[nH]c2ccccc12)C(=O)N[C@@H](CC(N)=O)C(=O)NCC(=O)N[C@@H](Cc1ccccc1)C(=O)NCC(=O)N[C@H](Cc1c[nH]c2ccccc12)C(=O)N[C@@H](CCCNC(=N)N)C(=O)N[C@@H](Cc1ccccc1)C(N)=O [Peptide 230] (Ac-[dY]NWNGFG[dW]RF-NH2) | little or no stimulation
CC(=O)N[C@@H](Cc1ccc(O)cc1)C(=O)N[C@H](CC(N)=O)C(=O)N[C@@H](Cc1c[nH]c2ccccc12)C(=O)N[C@@H](CC(N)=O)C(=O)NCC(=O)N[C@@H](Cc1ccccc1)C(=O)NCC(=O)N[C@H](Cc1c[nH]c2ccccc12)C(=O)N[C@@H](CCCNC(=N)N)C(=O)N[C@@H](Cc1ccccc1)C(N)=O [Peptide 232] (Ac-Y[dN]WNGFG[dW]RF-NH2) | little or no stimulation
CC(=O)N[C@@H](Cc1ccc(O)cc1)C(=O)N[C@@H](CC(N)=O)C(=O)N[C@H](C)C(=O)N[C@@H](CC(N)=O)C(=O)NCC(=O)N[C@@H](Cc1ccccc1)C(=O)NCC(=O)N[C@H](Cc1c[nH]c2ccccc12)C(=O)N[C@@H](CCCNC(=N)N)C(=O)N[C@@H](Cc1ccccc1)C(N)=O [Peptide 235] (Ac-YN[dA]NGFG[dW]RF-NH2) | little or no stimulation
